system: cancer cell lines; assay: Cancer cell proliferation activity (CellTiterGlo, 72 h); assay type: cell-based; settings: Homo sapiens, EFO-21, 72 h, EFO21 (ovary), 72 h; read-out: IC50 cell proliferation
quantity_kind: pIC50
Give bare numbers, as −log10 of the molar value.

Example cases with answers are listed next.
INSERT INTO assay_data (smiles_text, experimental_value) VALUES
  ('C[C@]1(CO)O[C@@H](n2cnc3c(N)nc(F)nc32)[C@H](O)[C@@H]1O', 7.10),
  ('Nc1nc(F)nc2c1ncn2[C@H]1C[C@H](O)[C@@H](CO)O1', 6.34),
  ('Nc1nc(F)nc2c1ncn2[C@@H]1O[C@H](CO)[C@@H](O)[C@@H]1O', 5.13);

// next entry
Prompt line: Requested field: pIC50. Item: `C[C@]1(CO)O[C@@H](n2ccc(N)nc2=O)[C@@H](O)[C@@H]1O`
Response line: 5.34

###

system: cancer cell lines; assay: Cancer cell proliferation activity (CellTiterGlo, 72 h); type: cell-based; details: 72 h, U20S cell line, bone; 72 h; read-out: IC50
pIC50: −log10 of the molar value.
For each record, write down the corresponding pIC50.

Illustrative cases are given below, each with its answer.
INSERT INTO measurements (smiles_text, quantity_kind, experimental_value) VALUES
  ('CC[C@]1(CO)O[C@@H](n2cc(F)c(N)nc2=O)C[C@@H]1O', 'pIC50', '< 4.30'),
  ('C[C@]1(CO)O[C@@H](n2cc(F)c(N)nc2=O)C[C@@H]1O', 'pIC50', '< 4.30'),
  ('CC[C@]1(CO)O[C@@H](n2cnc3c(N)nc(F)nc32)C[C@@H]1O', 'pIC50', 6.08),
  ('C=C[C@]1(CO)O[C@@H](Nc2[nH]c(=O)ncc2Br)C[C@@H]1O', 'pIC50', '< 4.30');

Here is the next item to consider.
Prompt line: Fill in: pIC50 of `N#C[C@]1(CO)O[C@@H](n2cc(F)c(N)nc2=O)C[C@@H]1O` is ___
Response line: < 4.30

###

Please go through the items and note down their pIC50.
test system: cancer cell lines; assay: Cancer cell proliferation activity (CellTiterGlo, 72 h); format: cell-based; settings: Homo sapiens, WSU-NHL, 72 h, WSU-NHL cell line (hematological), 72 h; read-out: IC50
Answers are plain numbers, as −log10 of the molar value.

INSERT INTO results (smiles_text, quantity_kind, experimental_value) VALUES
  ('N#C[C@]1(CO)O[C@@H](n2cc(F)c(N)nc2=O)C[C@@H]1O', 'pIC50', 5.63),
  ('CC(C)C[C@]1(CO)O[C@@H](n2cnc3c(N)nc(F)nc32)C[C@@H]1O', 'pIC50', 5.47),
  ('C[C@]1(CO)O[C@@H](n2cnc3c(N)nc(F)nc32)C[C@@H]1O', 'pIC50', 6.25),
  ('CC[C@]1(CO)O[C@@H](n2cnc3c(N)nc(F)nc32)[C@H](O)[C@@H]1O', 'pIC50', 7.40),
  ('O=c1[nH]c(=O)n([C@H]2C[C@H](O)[C@](CO)(CF)O2)cc1F', 'pIC50', 5.25);

List reported pIC50 for each of these molecules:
1. Nc1nc(F)nc2c1ncn2[C@H]1C[C@H](O)[C@](CO)(CF)O1
2. COC[C@]1(CO)O[C@@H](n2cnc3c(N)nc(F)nc32)C[C@@H]1O
3. CC[C@]1(CO)O[C@@H](n2cnc3c(N)nc(F)nc32)C[C@@H]1O
4. CC[C@]1(CO)O[C@@H](n2cc(F)c(N)nc2=O)C[C@@H]1O
5. CCC[C@]1(CO)O[C@@H](n2cnc3c(N)nc(F)nc32)C[C@@H]1O

Response line:
1: 5.31; 2: 6.37; 3: 6.14; 4: 5.60; 5: 6.34

###

tested on: cancer cell lines; assay: Cancer cell proliferation activity (CellTiterGlo, 72 h); type: cell-based; conditions: Homo sapiens, 786-0, 72 h, 786O cell line (kidney), 72 h; read-out: IC50
pIC50: −log10 of the molar value.
Assign Satisfied whenever pIC50 does not fall below 6; assign Not satisfied whenever it does.

Example results:
INSERT INTO measurements (molecule, class_assignment) VALUES
  ('C[C@]1(CO)O[C@@H](n2cc(F)c(=O)[nH]c2=O)C[C@@H]1O', 'Not satisfied'),
  ('Nc1nc(F)nc2c1ncn2[C@H]1C[C@H](O)[C@](CO)(CF)O1', 'Not satisfied'),
  ('COC[C@]1(CO)O[C@@H](n2cnc3c(N)nc(F)nc32)C[C@@H]1O', 'Satisfied');

Prompt line: Check the entry Nc1ccn([C@@H]2O[C@H](CO)[C@@H](O)C2(F)F)c(=O)n1 [gemcitabine, reference compound] : does pIC50 equal or exceed 6?
Response line: Satisfied

Prompt line: Test whether the molecule `CCC[C@]1(CO)O[C@@H](n2cnc3c(N)nc(F)nc32)C[C@@H]1O` records pIC50 of 6 or higher.
Response line: Satisfied

Prompt line: For this molecule, is measured pIC50 6 or higher? `C=C[C@]1(CO)O[C@@H](Nc2[nH]c(=O)ncc2Br)C[C@@H]1O`
Response line: Not satisfied

Prompt line: Hi, just wondering whether `CC[C@]1(CO)O[C@@H](n2cnc3c(N)nc(F)nc32)C[C@@H]1O` shows pIC50 of 6 or higher.
Response line: Satisfied

###

test system: cancer cell lines; experiment: Cancer cell proliferation activity (CellTiterGlo, 72 h); assay type: cell-based; details: 72 h, 5637 (bladder), 72 h; read-out: IC50 cell proliferation
quantity_kind: IC50 (nM)
Numbers only, in nM.

Example cases with answers are listed next.
INSERT INTO results (smiles_text, measured_on, experimental_value) VALUES
  ('C[C@]1(CO)O[C@@H](n2cnc3c(O)nc(N)nc32)C[C@@H]1O', 'cancer cell lines', 7010),
  ('O=c1[nH]c(=O)n([C@H]2C[C@H](O)[C@@H](CO)O2)cc1F', 'cancer cell lines', 1),
  ('C#C[C@]1(CO)O[C@@H](n2cnc3c(=O)[nH]c(N)nc32)[C@H](F)[C@@H]1O', 'cancer cell lines', 3900);

Required: IC50, one value per compound below.
1. Nc1nc(F)nc2c1ncn2[C@H]1C[C@H](O)[C@@H](CO)O1
2. C[C@]1(CO)O[C@@H](n2cnc3c(N)nc(F)nc32)[C@H](O)[C@@H]1O
3. Nc1nc(=O)n([C@H]2C[C@H](O)[C@@H](CO)O2)cc1F
4. Nc1nc(=O)n([C@H]2C[C@H](O)[C@](CO)(CF)O2)cc1F
5. CCC[C@]1(CO)O[C@@H](n2cnc3c(N)nc(F)nc32)[C@H](O)[C@@H]1O

Response line:
1. 950
2. 160
3. 1
4. 4
5. 230

###

Test system: cancer cell lines
Assay: Cancer cell proliferation activity (CellTiterGlo, 72 h)
Format: cell-based
Conditions: Homo sapiens, ACHN, 72 h, ACHN (kidney), 72 h; read-out: IC50 cell proliferation
Experimental: Dose response relationships on cell proliferation was assessed for representative Compounds of the Disclosure on cancer cell lines. […] Cells were cultured in the appropriate media. […] After incubation for 72 h at 37° C. at 5% or 10% CO2 dependent on the medium, cell plates were equilibrated to room temperature for one hour, CellTiterGlo reagent (Promega) was added and luminescence was measured approximately an hour later using a luminometer. […]
Field: IC50. Provide a value for each of the compounds that follow.
Give bare numbers, in nM.

INSERT INTO measurements (smiles_text, units_symbol, experimental_value) VALUES
  ('CCC[C@]1(CO)O[C@@H](n2cnc3c(N)nc(F)nc32)[C@H](O)[C@@H]1O', 'nM', 90),
  ('Nc1nc(F)nc2c1ncn2[C@H]1C[C@H](O)[C@](CO)(CC2CC2)O1', 'nM', 3830),
  ('Nc1ccn([C@H]2C[C@H](O)[C@](CO)(CF)O2)c(=O)n1', 'nM', 390);

Proceed to the following item.
Prompt line: Given `Nc1nc(=O)n([C@H]2C[C@H](O)[C@](CO)(CF)O2)cc1F` , state its recorded IC50.
Response line: 12

###

Tested on: cancer cell lines
Test: Cancer cell proliferation activity (CellTiterGlo, 72 h)
Assay type: cell-based
Settings: Homo sapiens, SAOS-2, 72 h, SAOS2 (bone), 72 h; read-out: IC50 cell proliferation
Description: Dose response relationships on cell proliferation was assessed for representative Compounds of the Disclosure on cancer cell lines. […] Cells were cultured in the appropriate media. […] After incubation for 72 h at 37° C. at 5% or 10% CO2 dependent on the medium, cell plates were equilibrated to room temperature for one hour, CellTiterGlo reagent (Promega) was added and luminescence was measured approximately an hour later using a luminometer. […]
pIC50: −log10 of the molar value.
// Not fulfilled strictly below 7 in pIC50; Fulfilled otherwise

INSERT INTO measurements (smiles_text, measured_on, class_assignment) VALUES
  ('Nc1nc(=O)n([C@H]2C[C@H](O)[C@](CO)(CF)O2)cc1F', 'cancer cell lines', 'Fulfilled'),
  ('Nc1nc(F)nc2c1ncn2[C@@H]1O[C@H](CO)[C@@H](O)[C@H]1O', 'cancer cell lines', 'Fulfilled'),
  ('C[C@]1(CO)O[C@@H](n2cnc3c(N)nc(F)nc32)[C@H](O)[C@@H]1O', 'cancer cell lines', 'Fulfilled'),
  ('C[C@]1(CO)O[C@@H](n2ccc(N)nc2=O)C(F)(F)[C@@H]1O', 'cancer cell lines', 'Not fulfilled'),
  ('C[C@]1(CO)O[C@@H](n2ccc(N)nc2=O)[C@@H](O)[C@@H]1O', 'cancer cell lines', 'Not fulfilled'),
  ('Nc1nc(=O)n([C@H]2C[C@H](O)[C@@H](CO)O2)cc1F', 'cancer cell lines', 'Fulfilled');

# input for lookup
Prompt line: // inclusive: pIC50 at least 7? input: `Nc1nc(F)nc2c1ncn2[C@@H]1O[C@H](CO)[C@@H](O)[C@@H]1O`
Response line: Not fulfilled
